- Test system: CRL-7250
- EXPERIMENT_NOTES: Cytotoxic Profiling of Annotated Libraries Using Quantitative High-Throughput Screening (AID 1296008); further: nearly all actives have a fitted effect of over 60% in size; further: potency means the concentration at half of the fitted maximal effect
- SETUP_CONDITIONS: Five cell lines viability, CellTiter-Glo ATP luminescence, 48-72 h
Records with an inconclusive call do not appear. Active and inactive are the calls of the source. The call rests on the fitted dose curve; in most records, active means well fitted inhibition curve with a large enough effect; inconclusive means small, poorly fitted or top-dose-only effect; inactive means flat fitted curve, though single readings scatter.
MEASURED_PROPERTY: Potency

As a guide, the following entries are already answered.
COMPOUND	Potency
Cc1ccc(S(=O)(=O)c2ccc([N+](=O)[O-])o2)cc1	5800 nM (active)
C=C1CC[C@@H]2[C@@](C)(CO[C@@H]3O[C@H](CO)C(O)[C@H](O)C3O)[C@H](O)CC[C@@]2(C)[C@@H]1CC/C(C)=C/CO (some centres not stated)	inactive
Nc1ccc(-c2cccc3c(=O)cc(N4CCOCC4)oc23)cc1	5800 nM (active)
CC[C@]1(O)CC2CN(CCc3c([nH]c4ccccc34)[C@@](C(=O)OC)(c3cc4c(cc3OC)N(C)[C@H]3[C@@](O)(C(=O)OC)[C@H](OC(C)=O)[C@]5(CC)C=CCN6CC[C@]43[C@@H]65)C2)C1 (some centres not stated)	259 nM (active)
Cc1ccc(-c2ccc3ncc4c(c3n2)n(C2CCN(C(=O)[C@H](C)O)CC2)c(=O)n4C)cn1	146 nM (active)

-- ask Which Potency value is on record for `COCCOc1ccc(N2CCN(CCn3ncc4c3nc(N)n3nc(-c5ccco5)nc43)CC2)cc1` ?
-- reply inactive

-- ask Which Potency value is on record for `CC(C)(C)NCCCNC(=O)c1cccc(Br)c1` ?
-- reply inactive

-- ask Which Potency value is on record for `CC(=O)O[C@@H]1[C@@H](OC(=O)/C=C/c2ccccc2)[C@@H](OC(C)=O)[C@H](O[C@H]2[C@@H]3C=CO[C@@H](O[C@@H]4O[C@H](CO)[C@@H](O)[C@H](O)[C@H]4O)[C@@H]3[C@@]3(CO)O[C@@H]23)O[C@H]1C` ?
-- reply inactive

-- ask Which Potency value is on record for `C=CC/C=C\C/C=C\CCCCCCCc1cccc(O)c1C(=O)O` ?
-- reply inactive

-- ask Which Potency value is on record for CCC1C(=O)N(C)c2cnc(Nc3ccc(C(=O)NC4CCC(N5CCN(CC6CC6)CC5)CC4)cc3OC)nc2N1C(C)C (configuration not stated) ?
-- reply 4610 nM (active)

-- ask Which Potency value is on record for C=C(C(=O)OC)C1C(O)CC2(C)C(=O)CCC(O)(CO)C2C1O (configuration not stated) ?
-- reply inactive

-- ask Which Potency value is on record for CC(C)C(C(=O)N(C)C(C)C(N)=O)N(C)C(=O)C1CCCN1C(=O)/C=C/C=C/C(O)C(C)O (configuration not stated) ?
-- reply inactive

-- ask Which Potency value is on record for `COc1cc2ncnc(Nc3ccc(O)cc3)c2cc1OC` ?
-- reply inactive

-- ask Which Potency value is on record for `C/C1=C\CC[C@H](C)CCO[C@@H]2O[C@H](CO[C@@H]3OC[C@](O)(COC1=O)[C@H]3O)[C@@H](O)[C@H](O)[C@H]2O` ?
-- reply inactive

-- ask Which Potency value is on record for C=C[C@H]1CN2CC[C@H]1C[C@@H]2C(O)c1ccnc2ccc(OC)cc12 (some centres not stated) ?
-- reply inactive

* * *

- System: JEG-3
- EXPERIMENT_NOTES: Primary qHTS to identify gynecologic anti-cancer compounds using libraries of approved drugs and bioactive compounds (AID 1345084); further: on the % scale 0 is the no-effect control and ±100 the full control effect; nearly all actives have a fitted effect of over 55% in size
- SETUP_CONDITIONS: Gynecologic cancer cell panel viability, ATPlite luminescence, 48 h; series mostly up to 57.5 µM
Records with an inconclusive call do not appear. Active and inactive are the calls of the source. The call rests on the fitted dose curve; in most records, active means well fitted cell-killing curve with a large enough effect; inconclusive means small, poorly fitted or top-dose-only effect, or effect the other way; inactive means flat fitted curve, though single readings scatter.
MEASURED_PROPERTY: activity change, negative = cytotoxicity

As a guide, the following entries are already answered.
COMPOUND	activity change, negative = cytotoxicity
O=C(OC[C@@]1(O)CO[C@@H](O[C@H]2[C@H](Oc3ccc(O)cc3)O[C@H](CO)[C@@H](O)[C@@H]2O)[C@@H]1O)c1ccc(O)cc1	inactive
CC(=O)c1c(O)cc(O[C@@H]2O[C@H](CO)[C@@H](O)[C@H](O)[C@H]2O)cc1O	inactive
C=C[C@H]1[C@H](O[C@@H]2O[C@H](CO)[C@@H](O)[C@H](O)[C@H]2O)OC=C(C(=O)OC)[C@H]1CC(=O)O	inactive
CCC(C)C(=O)OC1CC(O)C23C4OCC5(C(O)CC2C1(C)C(O)O4)C3C(=O)C(O)C1(C)C(O)(c2ccoc2)CC2OC251 (stereo not given)	inactive
Cc1ccc(F)cc1C(=O)Nc1ccc(C(=O)N2Cc3cccn3Cc3ccccc32)c(Cl)c1	inactive

-- ask # value lookup — system JEG-3, readout activity change, negative = cytotoxicity, item C=C(C(=O)O)C1CC(O)C2(C)CCCC(=C)C2C1 (stereo not given)
-- reply inactive

-- ask # value lookup — system JEG-3, readout activity change, negative = cytotoxicity, item CC1(C)CC[C@]2(C(=O)O[C@@H]3O[C@H](CO)[C@@H](O)[C@H](O)[C@H]3O)CC[C@]3(C)C(=CCC4[C@@]5(C)C[C@@H](O)[C@H](O)[C@](C)(C(=O)O)C5CC[C@]43C)C2C1O (stereo not given in full)
-- reply inactive

-- ask # value lookup — system JEG-3, readout activity change, negative = cytotoxicity, item C[C@@H]1O[C@@H](O[C@@H]2[C@@H](O[C@@H]3O[C@@H](C)[C@H](O[C@@H]4OC[C@H](O)[C@H](O[C@@H]5OC[C@@H](O)[C@H](O)[C@H]5O)[C@H]4O)[C@@H](O[C@@H]4OC[C@](O)(CO)[C@H]4O)[C@H]3O)[C@H](OC(=O)[C@]34CCC(C)(C)C[C@H]3C3=CCC5[C@@]6(C)C[C@H](O)[C@H](O[C@@H]7O[C@H](CO[C@@H]8OC[C@H](O)[C@H](O)[C@H]8O)[C@@H](O)[C@H](O)[C@H]7O)C(C)(C)C6CC[C@@]5(C)[C@]3(C)C[C@H]4O)OC[C@H]2O)[C@H](O)[C@H](O)[C@H]1O (stereo not given in full)
-- reply -6.81% [at 6.55 µM] (inactive)

* * *

- TARGET_ENTITY: Phospholipid hydroperoxide glutathione peroxidase GPX4 (Homo sapiens)
- EXPERIMENT_NOTES: Primary qHTS Assay for Inhibitors of Recombinant Selenoprotein Glutathione Peroxidase 4 (GPX4) (AID 1845192); further: nearly all actives have a fitted effect of over 65% in size; on activity change, negative = inhibition: on the % scale 0 is the no-effect control and ±100 the full control effect
- SETUP_CONDITIONS: recombinant GPX4, GR-coupled NADPH fluorescence, 15 min; series mostly up to 50 µM
Results filed as inconclusive are left out. Active and inactive are the calls of the source. Calls come from the whole dose curve; as a rule, active = well fitted inhibition curve with a large enough effect; inconclusive = small, poorly fitted or top-dose-only effect; inactive = flat fitted curve, though single readings scatter.
MEASURED_PROPERTY: activity change, negative = inhibition

>>> print(df.to_string())
                                   molecule                             target_entity  meas_value
0          C=C1C(=O)O[C@H](CCC)[C@H]1C(=O)O  Phospholipid hydroperoxide glutathione peroxidase GPX4 (Homo sapiens)    inactive
1  CC(=O)c1ccc(O[C@@H]2O[C@H](CO)[C@@H](O)[C@H](O)[C@H]2O)cc1  Phospholipid hydroperoxide glutathione peroxidase GPX4 (Homo sapiens)    inactive
2  CC1=C2C[C@H]3O[C@@]3(C)CCC3O[C@@]3(C)C[C@@]2(O)OC1=O (stereo not given in full)  Phospholipid hydroperoxide glutathione peroxidase GPX4 (Homo sapiens)    inactive
3  Cc1ccc(S(=O)(=O)c2ccc([N+](=O)[O-])o2)cc1  Phospholipid hydroperoxide glutathione peroxidase GPX4 (Homo sapiens)    inactive

Now for a further molecule.
-- ask Which activity change, negative = inhibition value is on record for `CC(=O)O[C@@H]1CC(C)=C2[C@H]1[C@H](C)CC[C@H]2/C=C(\C)C(=O)O` ?
-- reply inactive

* * *

- EXPERIMENT_NOTES: P-glycoprotein substrates identified in KB-8-5-11 adenocarcinoma cell line, qHTS therapeutic library screen (AID 1346987); further: nearly all actives have a fitted effect of over 65% in size
- SETUP_CONDITIONS: KB-8-5-11 (P-gp overexpressing) viability, CellTiter-Glo, 72 h; series mostly up to 44.5 µM
Results filed as inconclusive are left out. The source made the active and inactive calls. Calls follow the shape of the dose curve; as a rule, active = well fitted inhibition curve with a large enough effect; inconclusive = small, poorly fitted or top-dose-only effect; inactive = flat fitted curve, though single readings scatter. Where a SMILES comes first, the peptide text is derived from it. The star is where a group is joined. AFC = O=c1cc(C(F)(F)F)c2ccc(N*)cc2o1
# output must be one of active, inactive

Example cases with answers are listed next.
COMPOUND	CLASS
CC1(O)CC(O)C2(O)C=COC(O[C@@H]3O[C@H](CO)[C@@H](O)[C@H](O)[C@H]3O)C12 (stereo partly specified)	inactive
O=C(O)CCCCCC[C@H]1C(=O)NC(=O)N1CC[C@@H](O)C1CCCCC1	inactive
C[C@@H]1C[C@@H](O)[C@@]23CO[C@@H](O)[C@@H]2CCC[C@@H]3[C@@]12C[C@@H](c1ccoc1)OC2=O	inactive
CC(/C=C/C1=CC2=CC(=O)C(C)(O)C(O)C2=CO1)=C\C(C)CCO (stereo unspecified)	inactive
Cc1cc(O)c(-c2ccc([C@@H](C)CN(C)C)cc2)c2c1[nH]c(=O)c1sccc12	active
CC1(C)CCC[C@]2(C)[C@H]3CC(=O)O[C@]3(C)CC[C@@H]12	inactive

-- ask // param item: `CC(C)S(=O)(=O)N[C@H]1CCOC[C@@H]1c1ccc(-c2ccc(C#N)s2)cc1` ; yields the recorded call
-- reply inactive

-- ask // param item: CC1=C(C(=O)O[C@@H]2O[C@H](COC3OCC(O)C(O)C3O)[C@@H](O)[C@H](O)[C@H]2O)C(C)(C)CCC1 (stereo partly specified) ; yields the recorded call
-- reply inactive

-- ask // param item: CC(=O)N[C@@H](Cc1c[nH]c2ccccc12)C(=O)N[C@@H](CCC(=O)O)C(=O)N[C@@H](Cc1cnc[nH]1)C(=O)N[C@@H](CC(=O)O)C(=O)Nc1ccc2c(C(F)(F)F)cc(=O)oc2c1 (Ac-WEHD-{AFC}) ; yields the recorded call
-- reply inactive

-- ask // param item: `Cc1c(C(=O)N2CCOc3ccc(-c4ccc(N)nc4)cc3C2)ccc(S(C)(=O)=O)c1F` ; yields the recorded call
-- reply active

-- ask // param item: `COc1ccc(CCC(=O)c2c(O)cc(O)cc2O[C@@H]2O[C@H](CO)[C@@H](O)[C@H](O)[C@H]2O)cc1` ; yields the recorded call
-- reply inactive

-- ask // param item: `CC(C)(C)C(=O)CN1C(=O)[C@H](NC(=O)Nc2cccc(C(=O)O)c2)CN(C2CCCCC2)c2ccccc21` ; yields the recorded call
-- reply inactive

-- ask // param item: CC1OC2OC(=O)C3(C)CC4=C(CO)C5=C(CC(=O)C4(C)C(C1=O)C23)C(C)(C)OC(=O)C5 (stereo unspecified) ; yields the recorded call
-- reply inactive

-- ask // param item: C=C[C@H]1C(O[C@@H]2O[C@H](CO)[C@@H](O)[C@H](O)[C@H]2O)OC=C2C(=O)N3CCc4c([nH]c5ccccc45)C3CC21 (stereo partly specified) ; yields the recorded call
-- reply inactive

-- ask // param item: CC1(C)CCC[C@@]2(C)C1[C@H](OC(=O)/C=C/C=C/C(=O)O)C=C1COC(=O)[C@@]12O (stereo partly specified) ; yields the recorded call
-- reply inactive

-- ask // param item: `COc1c(/C=C/C(C)(C)O)ccc2c1C(=O)OCc1cc(C)cc(O)c1O2` ; yields the recorded call
-- reply inactive
